Test system: CAKI-1 renal
Assay summary: NCI tumour cell line growth inhibition, 48 h; in the data active means GI50 below about 0.43 µM; inactive means the rest
Possible outcomes: active, inactive

• CNC(=O)c1cc(Oc2cccc3nc(NC(=O)Nc4cc(C(F)(F)F)cc(C(F)(F)F)c4)ccc23)ccn1 = inactive
• NCCCOc1cc2ccccc2cc1C(=O)Nc1ccc(Cl)cc1OC(=O)c1cc2ccccc2cc1OCCCN = inactive
• COc1cccc(-c2nn(-c3ccccc3)cc2-c2ccnc(NCCCNC(=O)c3cccc(C(F)(F)F)c3)c2)c1 = inactive
• Cc1ccc(C(=O)c2sc3nc4c(cc3c2N)CCCC4)c(C)c1 = active
• Cc1c(Cl)c(=O)oc2cc(OC/C=C3\CCC(=O)O3)ccc12 = inactive

Values from PubChem BioAssay (NCI)
